- TEST TARGET: HLA-B*27:05
- ASSAY SUMMARY: IEDB peptide-MHC binding, purified MHC/competitive/fluorescence; filed as Kd, often an IC50 or EC50 that approximates it; bounds were set here for any values at or beyond the usual limits of such assays
- ASSAY CONDITIONS: source organism: Salmonella enterica subsp. enterica serovar Typhi
MEASUREMENT LABEL: Kd (nM)
Output spec: scalar in nM, unitless text.

Briefly, Kd measured for `KQFCLSILL` : 208

---

- TEST TARGET: HLA-C*06:02
- ASSAY SUMMARY: IEDB peptide-MHC binding, purified MHC/competitive/fluorescence; filed as Kd, often an IC50 or EC50 that approximates it; bounds were set here for any values at or beyond the usual limits of such assays
- ASSAY CONDITIONS: source organism: Yersinia pestis KIM10+
MEASUREMENT LABEL: Kd (nM)
Output spec: scalar in nM, unitless text.

Briefly, Kd measured for `SRWAISHWL` : 82.2

---

- TEST TARGET: HLA-A*11:01
- ASSAY SUMMARY: IEDB peptide-MHC binding, purified MHC/direct/fluorescence; filed as Kd, often an IC50 or EC50 that approximates it; bounds were set here for any values at or beyond the usual limits of such assays
- ASSAY CONDITIONS: source organism: Vibrio cholerae
MEASUREMENT LABEL: pKd
In textbook form, pKd equals minus log to base ten of the concentration in mol/L.

With HLA-A*11:01 as the test system, `AADFPGIAR` showed pKd of 6.79

---

- TEST TARGET: HLA-B*44:02
- ASSAY SUMMARY: IEDB peptide-MHC binding, purified MHC/competitive/radioactivity; filed as Kd, often an IC50 or EC50 that approximates it; bounds were set here for any values at or beyond the usual limits of such assays
- ASSAY CONDITIONS: source organism: Dengue virus 3 Martinique/1243/1999
MEASUREMENT LABEL: pKd
In textbook form, pKd equals minus log to base ten of the concentration in mol/L.

Briefly, pKd measured for `EEESEGAIW` : 7.47

Briefly, pKd measured for `KEEESEGAIW` : 7.23

Briefly, pKd measured for `AWMVHRQWFF` : 5.66

Briefly, pKd measured for `GESSPSPTV` : 6.13

---

- TEST TARGET: HLA-A*30:01
- ASSAY SUMMARY: IEDB peptide-MHC binding, purified MHC/competitive/fluorescence; filed as Kd, often an IC50 or EC50 that approximates it; bounds were set here for any values at or beyond the usual limits of such assays
- ASSAY CONDITIONS: source organism: Vibrio cholerae 2740-80
MEASUREMENT LABEL: pKd
In textbook form, pKd equals minus log to base ten of the concentration in mol/L.

Briefly, pKd measured for `AADFPGIAR` : 5.68

---

- TEST TARGET: HLA-C*08:02
- ASSAY SUMMARY: IEDB peptide-MHC binding, purified MHC/direct/fluorescence; filed as Kd, often an IC50 or EC50 that approximates it; bounds were set here for any values at or beyond the usual limits of such assays
- ASSAY CONDITIONS: source organism: Pan troglodytes
MEASUREMENT LABEL: Kd

Briefly, Kd measured for `VMPPRTLLL` : ≥ 20 µM

---

- TEST TARGET: HLA-A*24:03
- ASSAY SUMMARY: IEDB peptide-MHC binding, purified MHC/direct/fluorescence; filed as Kd, often an IC50 or EC50 that approximates it; bounds were set here for any values at or beyond the usual limits of such assays
- ASSAY CONDITIONS: source organism: Mycobacterium tuberculosis variant bovis
MEASUREMENT LABEL: pKd
In textbook form, pKd equals minus log to base ten of the concentration in mol/L.

With HLA-A*24:03 as the test system, `GYAGTLQSL` showed pKd of 9.05
